Test: Displacement of [3H]-flunitrazepam from rat brain GABA-A receptor benzodiazepine site after 20 mins by liquid scintillation counting
pKi: −log10 of the molar value.
Assign 1.0 to entries whose pKi meets or exceeds 7; assign 0.0 to the rest.

CN(C)C(=O)Cc1c(-c2ccc(F)cc2)nc2ccc(C(F)(F)F)cn12    0.0
CN(C)C(=O)Cc1c(-c2ccc(F)cc2)nc2ccc(F)cn12    1.0

Exam item: decide whether the reported pKi for CN(C)C(=O)Cc1c(-c2ccc(C(F)(F)F)cc2)nc2ccc(C(F)(F)F)cn12 is at least 7.
0.0

Exam item: decide whether the reported pKi for CN(C)C(=O)Cc1c(-c2ccc(F)c(F)c2)nc2ccc(F)cn12 is at least 7.
1.0

Exam item: decide whether the reported pKi for Cc1ccc2nc(-c3ccc(F)cc3)c(CC(=O)N(C)C)n2c1 is at least 7.
1.0
